# Tested on: MS2 coat protein
# procedure.details: apparent KD of MS2 coat protein; designed switch direction (-1 OFF switch, 1 ON switch): -1; higher = weaker reporter binding
# test.conditions: input ligand: FMN 200 uM
measurement.name: apparent KD of MS2 coat protein (nM)
Quick reminder: number only, in nM, skip the unit.

Request: Give the reported apparent KD of MS2 coat protein for this sequence. AAGAAACAUGAGGAUCACCCAUGUGAGGAUAUGGCCCGCCCGGCGUAAGCAAAAUAAAUCAGAAGGCACAAAGG [salish99_ex1_r4_008] (Eterna round: R97, puzzle: Exclusion 1)
Result: 39.5

Request: Report apparent KD of MS2 coat protein for CGUAGCAAAGUGAGGAUAUCUAGAGCGAUAGCUCUAGAGAAGGCACAUGAGGAUCACCCAUGUGGUCAGCUACG [BmEx4/8-A4] (Eterna round: R97, puzzle: Brourd's mod of Exclusion 4)
Result: 393

Request: Give the reported apparent KD of MS2 coat protein for this sequence. UUUACAAGCUAUAGAUCCCACAUGAGGAUCACCCAUGUUGCUGCCGGUGACGGUAGCAUAACUAUUGCUCGUCUUAU [JL TOV1 3.61] (Eterna round: R97, puzzle: Sensor, turn-off variant 1)
Result: 150

Request: Answer with the recorded apparent KD of MS2 coat protein of GGUCCGCAUGUCAGGAUAUACAUAUGGAUCAUAGAGUAGAAGGGACUUGAGGAUCACCCAAGUAACAAAAGAAG [Tiantere] (Eterna round: R97, puzzle: Brourd's mod of Exclusion 4) only.
Result: 60.1

Request: Give me measured apparent KD of MS2 coat protein, please, for this sequence: CCAAAGUCAGGAUAUGUGCGUUAAAAGCCGUACGUAACGACACAGAAGGGACAUGAGGAUCACCCAUGUUGGUG [Eternabot (Original) Solution 13] (Eterna round: R97, puzzle: Exclusion 4)
Result: 96.7

====

# Test system: MS2 coat protein
# procedure.details: apparent KD of MS2 coat protein; designed switch direction (-1 OFF switch, 1 ON switch): 1; higher = weaker reporter binding
# test.conditions: Eterna round: R95; input ligand: microRNA oligo, concentration not stated
A collection of sequences and their measured apparent KD of MS2 coat protein
Write the answer as a number in nM, unit excluded.

# annotated cases, reported apparent KD of MS2 coat protein shown
ordered.residues | apparent KD of MS2 coat protein (nM)
GGGCCAGCUUGUGCUGGGCCUUCGCAUGCACAUGAGGAUCACCCAUGUCGUGUACAUGCUUUUUGCUCGUCUUUAAA [Photon Torp-11] (puzzle: Sensor for hsa-mir-208a) | 14
AACAAUCUAUCUGAGGAUAUCAUGAAAAAAACAUGAGGAUCACCCAUGUGCAGGAAAACUGCAUAUGAGAAGGCAGAUAGAUUGG [salish99_SS2_r3_003] (puzzle: Same State 2) | 589
GGAGAGAGAGCGGAGGAUAUUCAAGGAGAGACAUGAGGAUCACCCAUGUAAGAGAGAGAGGAGAGGGAGAAGGCUGAGAGAGAGG [Altered State 2-11 - Jieux - Same State 2] (puzzle: Same State 2) | 25.9
AUAAGUUUGAUGCUCGUCUCUCCGUACAGACAUGAGGAUCACCCAUGUAGCCGGGAAGUAGCCCGACCAGUAUGGCC [Isriinus] (puzzle: Sensor for hsa-mir-208a) | 23.9
UGUCCAGCCUGAGCUGGACAAAAGCAUGUACAUGAGGAUCACCCAUGUUCAUGUACAAGCUUUUUGCUCGUCUUAUC [salish99_208a_r3_057] (puzzle: Sensor for hsa-mir-208a) | 13.2
GGUCCAGCCUGAGCUGGACGGUAGUAUGUACAUGAGGAUCACCCAUGUCAUGUAGAAGUUACUUGUUCGUCUUGAAC [SENSOR #1] (puzzle: Sensor for hsa-mir-208a) | 13.3
GAGGGAUGAGCGUAGGAUAUAGGAGAAGUGACAUGAGGAUCACCCAUGUGGUAUGAGGGAUGAUUCUAGAAGGACGCGGUAGAAG [JR_SS2_Sub063] (puzzle: Same State 2) | 399
GAGAGACAUGAGGAUCACCCAUGUAGAAUAGAACAAGGAUAUGUGGAAGGCGGAGGAGAGACAGAAGGUGUAGGAG [JR_SS1_Sub055] (puzzle: Same State 1) | 64

Request: Name the recorded apparent KD of MS2 coat protein of the item UAGAACAAGCUUUUUGCCCGUCUUAGAUAACAUGAGGAUCACCCAUGUAAGGUGAAAGUUAGAGAGUGGAGGAAGAA [JR_SHM208A_Sub054] (puzzle: Sensor for hsa-mir-208a) in your answer.
Result: 217

Request: Please indicate apparent KD of MS2 coat protein recorded for UCUUGGUUUUUGCUCGUUUUUUGUGUUGAACAUGAGGAUCACCCAUGUAUUGUACGGUCCAGUUUAAUAAUGGUCCA [JMF 6] (puzzle: Sensor for hsa-mir-208a)
Result: 14.4

Request: Consider the sequence AUUAAACAUGAGGAUCACCCAUGUCAACAAAGUCGAGGAUAUGGGCAAAUAAAAUAAGAACCAGAAGGCGACUAAU [salish99_ss1_r3_071] (puzzle: Same State 1) and give its recorded apparent KD of MS2 coat protein.
Result: 22.3

Request: Look up and report measured apparent KD of MS2 coat protein for this entry: UUUUUAUAACAUGAGGAUCACCCAUGUGCGCGCACAAGGUUGUUGCUCGUCUUAUUUUUUUUUUUUUUUUUUUUUUU [viviankchen2] (puzzle: Sensor for hsa-mir-208a version 2)
Result: 220

Request: State, in one line, measured apparent KD of MS2 coat protein of CAGCGCUGUUGAGAGGAUAUGCGGUGAUGGACAUGAGGAUCACCCAUGUUAGCGAUAGCAUUACGGUAGAAGGCUCUACAGCUGC [Soteed Omei mod 3] (puzzle: Same State 2)
Result: 14
